- Tested on: Escherichia coli TOP10
- experimentSummary: shrunken log2 fold change of peptide-encoding DNA abundance (4.5 h post-induction vs induction); higher = less antimicrobial activity (less host growth inhibition)
- runConditions: time post-induction: 4.5 h; library: site-saturation at positions 5, 18, 19, 20
Outcome: met for shrunken log2 fold change of at least 0.07; not met for anything lower.

| polymerSequence | cat |
| --- | --- |
| RRIRWRPPRLPRPRPRPEHGPRP | met |
| RRIRCRPPRLPRPRPRPITMPRP | not met |
| RRIRTRPPRLPRPRPRPPTIPRP | not met |

API: above_or_equal(metric=shrunken log2 fold change, cutoff=0.07) for item RRIRCRPPRLPRPRPRPHSCPRP
not met

Let us now turn to RRIRMRPPRLPRPRPRPWWLPRP
not met

----------
- Tested on: Escherichia coli TOP10
- experimentSummary: shrunken log2 fold change of peptide-encoding DNA abundance (4.5 h post-induction vs induction); higher = less antimicrobial activity (less host growth inhibition)
- runConditions: time post-induction: 4.5 h; library: site-saturation at positions 5, 18, 19, 20
measurementLabel: shrunken log2 fold change
Answers are plain numbers.

# annotated cases, reported shrunken log2 fold change shown
| polymerSequence | measurementLabel | measValue |
| --- | --- | --- |
| RRIRYRPPRLPRPRPRPVLIPRP | shrunken log2 fold change | -0.00211 |
| RRIRFRPPRLPRPRPRPCCFPRP | shrunken log2 fold change | -0.354 |
| RRIRMRPPRLPRPRPRPQLFPRP | shrunken log2 fold change | 0.0897 |
| RRIRCRPPRLPRPRPRPEETPRP | shrunken log2 fold change | 0.143 |
| RRIRDRPPRLPRPRPRPVSDPRP | shrunken log2 fold change | -0.145 |
| RRIRWRPPRLPRPRPRPGLCPRP | shrunken log2 fold change | 0.412 |
| RRIRRRPPRLPRPRPRPSTQPRP | shrunken log2 fold change | -0.245 |
| RRIRERPPRLPRPRPRPFSPPRP | shrunken log2 fold change | -0.745 |
| RRIRRRPPRLPRPRPRPMLMPRP | shrunken log2 fold change | 0.122 |
| RRIRMRPPRLPRPRPRPARIPRP | shrunken log2 fold change | 0.56 |

Provide reported shrunken log2 fold change for each item, in the same order as listed.
1. RRIRYRPPRLPRPRPRPLDLPRP
2. RRIRMRPPRLPRPRPRPEQLPRP
3. RRIRIRPPRLPRPRPRPLYRPRP

1. -0.0215
2. 1.94
3. -0.384

Provide reported shrunken log2 fold change for each item, in the same order as listed.
1. RRIRPRPPRLPRPRPRPYNNPRP
2. RRIRNRPPRLPRPRPRPAQNPRP

-1.25
0.861

----------
- System: Escherichia coli TOP10
- experimentSummary: shrunken log2 fold change of peptide-encoding DNA abundance (4.5 h post-induction vs induction); higher = less antimicrobial activity (less host growth inhibition)
- runConditions: time post-induction: 4.5 h; library: site-saturation at positions 5, 18, 19, 20
measurementLabel: shrunken log2 fold change
Answers are plain numbers.

# annotated cases, reported shrunken log2 fold change shown
| polymerSequence | experimentalSystem | shrunken log2 fold change |
| --- | --- | --- |
| RRIRVRPPRLPRPRPRPMHSPRP | Escherichia coli TOP10 | -0.179 |
| RRIRGRPPRLPRPRPRPFLAPRP | Escherichia coli TOP10 | 0.525 |
| RRIRMRPPRLPRPRPRPAQHPRP | Escherichia coli TOP10 | 0.0457 |
| RRIRDRPPRLPRPRPRPAREPRP | Escherichia coli TOP10 | 1.06 |

Provide reported shrunken log2 fold change for each item, in the same order as listed.
1. RRIRWRPPRLPRPRPRPVHDPRP
2. RRIRYRPPRLPRPRPRPYLRPRP
3. RRIRCRPPRLPRPRPRPPVGPRP
4. RRIRERPPRLPRPRPRPAFIPRP
5. RRIRERPPRLPRPRPRPPNSPRP

1. 0.141
2. -0.00962
3. 0.414
4. -0.012
5. -0.148

Provide reported shrunken log2 fold change for each item, in the same order as listed.
1. RRIRMRPPRLPRPRPRPVQSPRP
2. RRIRFRPPRLPRPRPRPLIVPRP
3. RRIRARPPRLPRPRPRPHNEPRP
4. RRIRCRPPRLPRPRPRPEGGPRP
5. RRIRERPPRLPRPRPRPTCFPRP
6. RRIRIRPPRLPRPRPRPKQEPRP

1: 0.206; 2: -0.473; 3: -0.258; 4: 0.477; 5: -0.133; 6: 0.113

----------
Hi there, I'd appreciate the recorded shrunken log2 fold change for every entry that follows.
- Test system: Escherichia coli TOP10
- experimentSummary: shrunken log2 fold change of peptide-encoding DNA abundance (4.5 h post-induction vs induction); higher = less antimicrobial activity (less host growth inhibition)
- runConditions: time post-induction: 4.5 h; library: site-saturation at positions 5, 18, 19, 20
Numbers only.

# annotated cases, reported shrunken log2 fold change shown
| polymerSequence | shrunken log2 fold change |
| --- | --- |
| RRIRTRPPRLPRPRPRPCKIPRP | -0.03 |
| RRIRNRPPRLPRPRPRPGRNPRP | -0.202 |
| RRIRPRPPRLPRPRPRPRRNPRP | -0.0266 |
| RRIRARPPRLPRPRPRPEPEPRP | 0.967 |
| RRIRSRPPRLPRPRPRPTGPPRP | -0.0769 |
| RRIRERPPRLPRPRPRPWYNPRP | -0.174 |
| RRIRPRPPRLPRPRPRPCWMPRP | -0.126 |
| RRIRWRPPRLPRPRPRPGHSPRP | 0.0135 |

Provide reported shrunken log2 fold change for each item, in the same order as listed.
1. RRIRARPPRLPRPRPRPFGGPRP
2. RRIRDRPPRLPRPRPRPPIYPRP
3. RRIRKRPPRLPRPRPRPISHPRP
4. RRIRVRPPRLPRPRPRPPMHPRP

1. 0.0726
2. -0.242
3. 0.17
4. 0.245

----------
- Tested on: Escherichia coli TOP10
- experimentSummary: shrunken log2 fold change of peptide-encoding DNA abundance (4.5 h post-induction vs induction); higher = less antimicrobial activity (less host growth inhibition)
- runConditions: time post-induction: 4.5 h; library: site-saturation at positions 5, 18, 19, 20
measurementLabel: shrunken log2 fold change
Answers are plain numbers.

# annotated cases, reported shrunken log2 fold change shown
| polymerSequence | measurementLabel | measValue |
| --- | --- | --- |
| RRIRFRPPRLPRPRPRPMRDPRP | shrunken log2 fold change | 0.109 |
| RRIRHRPPRLPRPRPRPMRMPRP | shrunken log2 fold change | -0.00476 |
| RRIRMRPPRLPRPRPRPIFHPRP | shrunken log2 fold change | -0.00123 |
| RRIRMRPPRLPRPRPRPPGIPRP | shrunken log2 fold change | 1.2 |
| RRIRQRPPRLPRPRPRPLQKPRP | shrunken log2 fold change | -0.0062 |

Provide reported shrunken log2 fold change for each item, in the same order as listed.
1. RRIRLRPPRLPRPRPRPHEHPRP
2. RRIRARPPRLPRPRPRPRREPRP
3. RRIRHRPPRLPRPRPRPNVPPRP

-0.109
0.631
-0.0223

----------
- System: Escherichia coli TOP10;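 note: peptides expressed intracellularly from a pBAD plasmid library in pooled LB shake-flask culture, induced with 0.3% L-arabinose, DNA abundance read by NGS, three biological replicates, DESeq2 with apeglm shrinkage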
- experimentSummary: shrunken log2 fold change of peptide-encoding DNA abundance (4.5 h post-induction vs induction); higher = less antimicrobial activity (less host growth inhibition)
- runConditions: time post-induction: 4.5 h; library: site-saturation at positions 5, 18, 19, 20
measurementLabel: shrunken log2 fold change
Numbers only.

# annotated cases, reported shrunken log2 fold change shown
| polymerSequence | experimentalSystem | shrunken log2 fold change |
| --- | --- | --- |
| RRIRDRPPRLPRPRPRPPFDPRP | Escherichia coli TOP10 | 0.422 |
| RRIRRRPPRLPRPRPRPLTPPRP | Escherichia coli TOP10 | 0.489 |
| RRIRGRPPRLPRPRPRPMMWPRP | Escherichia coli TOP10 | 0.412 |
| RRIRGRPPRLPRPRPRPQKWPRP | Escherichia coli TOP10 | 0.0681 |

Provide reported shrunken log2 fold change for each item, in the same order as listed.
1. RRIRFRPPRLPRPRPRPNKPPRP
2. RRIRRRPPRLPRPRPRPMPHPRP

[-0.00705, -0.124]

Provide reported shrunken log2 fold change for each item, in the same order as listed.
1. RRIRVRPPRLPRPRPRPSNMPRP
2. RRIRPRPPRLPRPRPRPSLWPRP
3. RRIRDRPPRLPRPRPRPTTCPRP
4. RRIRARPPRLPRPRPRPRTVPRP
5. RRIRFRPPRLPRPRPRPSPEPRP
6. RRIRMRPPRLPRPRPRPVTDPRP

1: -0.124; 2: 0.471; 3: 0.463; 4: 0.457; 5: 0.24; 6: -0.0129

Provide reported shrunken log2 fold change for each item, in the same order as listed.
1. RRIRSRPPRLPRPRPRPLTLPRP
2. RRIRHRPPRLPRPRPRPEGFPRP
3. RRIRYRPPRLPRPRPRPCSYPRP

[-0.599, -0.078, -0.0018]
